method-notes: soluble on expression in E. coli; label from the status in PepcDB or PDB records
observable: soluble on expression in E. coli

Example entries begin here.
MNVLIIEDDPMVDFIHRNYLEKLNLFDRIISSDSMKAVQSILTDYAIDLILLDIHITDGNGIQFLEKWRTQHIPCEVIIISAANDGNIIRDGFHLGIIDYLIKPFTFERFQESIQQFVTHREHLANQQLEQAQIDQLKCLTSKKDTKNKQLLEKGLSESTFQWIMENIKVFDQPFTIQELASACHLSHVSVRKYIAYLEENKQLNSQQIFTKVGRPYRVYW not soluble
MKKAKSRIAILGTGGTIAGFIDSTIATTGYAAGAIDIDVLIKAVPQIRDLADISWEQIANIDSSNMCDEIWLRLAKKIAKLFAEGIDGVVITHGTDTMEETAYFLNLTIKSDKPVVLVGAMRPSTAISADGPKNLYNAVALVVNKEAKNKGVMVAINDKILSARGVVKTHSLNVDAFSSPDFGDLGYIVDGKVFFYNNVIKAHTKNAPFDVSKLTSLPKVDILYSYSNDGSGVAAKALFEHGTKGIVVAGSGAGSIHKNQKDVLKELLKKGLKVVVSSRVVAGCVAVSDSDEKLGFISAEDLNPQKARVLLMLALTKTSDPKKIQEYFLKY soluble
GIPRNSSTGAKTAKSDKLKVVATNSIIADMTKAIAGDKIDLHSIVPIGQDPHEYEPLPEDAEKTSNADVIFYNGINLEDGGQAWFTKLVKNAQKTKNKDYFAVSDGIDVIYLEGASEKGKEDPHAWLNLENGIIYSKNIAKQLIAKDPKNKETYEKNLKAYVAKLEKLDKEAKSKFDAIAENKKLIVTSEGCFKYFSKAYGVPSAYIWEINTEEEGTPDQISSLIEKLKVIKPSALFVESSVDRRPMETVSKDSGIPIYSEIFTDSIAKKGKPGDSYYAMMKWNLDKISEGLAK soluble
MKRILLLGGITEALAIARKLGPEHIYSLAGVGRVPTDLACQLKVGGYGGAEGMAQYIRDQGVDLLLDATHPYAAQISRNAALAARIAGIPCWALRRTAWQPGPDDDWREVADWSALVTALAPFKRPLFTLGREPLQHLNEIPKHQFWTLRALDSYPGNDRCEVIGARGPFVLEDERQLFEQRNIDVLISKNSGSSSTEPKLDVARERGLPVLILKRPQLPDVDRILWSVDEVLGVLGLAETSPKPR not soluble
MENGEVLISGYRIPYSYAAMPGVKKNLVIIDIKGDEIWQKLRAADRINEWKINVYIPHFIAGSKEVVDSEPSSNLDSAGEFYYNFVQAMRLKNVMLMGEGINADVALKCSMIHPERFSNVIAIDGTGYDGYAEELYRVQKPVLLVWGGARGYRETMIGQSYHDLIAGSVFKVFDNSKRPLEDSTDRFFSMLKNYIAVD not soluble

Now look at this one.
Documented soluble on expression in E. coli of MLRVLSRQAFSMVRAANFSASASSAGGGGLSDEVRKRIDGIVKKDDVVVFMKGTQQEPACGFSRNVKLVLDFHNVKFQDYNVLTDQELREGVKIFSEWPTIPQVYVKGEFVGGCDILISMHKDGEISDFLDEKGISNKYGKQ : not soluble

====

method-notes: soluble on expression in E. coli; label from the status in PepcDB or PDB records
observable: soluble on expression in E. coli

Please review the following examples before continuing.
MAGRKKTTACKLFVLDTNVLLHDPTCLYRFEEHDVFIPIITLEELDTHKKGMSEVARNARQASRFLDDIISGNELNISEGIPLKHASRDAASGKLILQTQAINGTLPSSLPMGKADNQILGIVMALKSHYQGRAVILVSKDINMRIKARALGLEAEDYFNDKVLEDTDVL not soluble
MAQIIDFFAAFRGYYSDGSTFIQIISLGSHHNLSVHISERMLSESGIKLGNFLSATVSLAEHPKNFQLKRLNLQVTVEGNFAKVHGIEANLEKNADGILVFSTNNFASAKATNQGLEIGRYKITVQAVKPSEKDLFNGMKFFGTVEEKISGLTRRVASNNTNQVIGEGFRNMSISGKRTVS not soluble
SLLCGPLRLSESGETWSEVWAAIPMSDPQVLHLQGGSQDGRLPRTIPLPSCKLSVPDPEERLDSGHVWKLQWAKQSWYLSASSAELQQQWLETLSTAAH soluble
MIVLIDNYDSFTYNLYQLLGEYEEEIVVVRNDQITIEQLEEMNPKGIVLSPGPGKPEEAGICIEVIRHFYKNVPILGICLGHQAIISAFGGEIVRAERIKHGKTSRAKHNGTSIFSYVTQPLTAMRYHSLVAAQTSLPQCFDILATAMDDGEIMAVRHNYYPLFGLQFHPESIATEEGGKLIRAFLGEVKEEERV not soluble
MSLRSYLGSISTSKTEVNSMKMHVLKLLIPTMALLLSACASLPPELGNPDDKSVVTQYSAWLERDPATQSPVRMGGVVANISNQKDRTRVELVNLPIDSAGRPNIHQEPQGRFVAYVPGFLDPITYGEGRLLTLYGTTAPSEQGKVGDYEHTYPVMNAQGYHLWRVEERVEVDDIGPYMFPCRGFYCWPRTMPERDGKIIQEVKEGGSHHHHHH soluble

According to the records, this sequence MRDLKIVNGDLSFIDYGILLVEGDLELAQSVFMILSIRLEEFKLDTSVGLESDNMFGKNYNEDYLKQDITEAILDQEPRINSIENIEIVRNNRQLNITVEMLSTLGDEVEVVIRA displays soluble on expression in E. coli of not soluble

In plain terms, MSLSRQCVLAGISRAALYARRKPKRIVQDDELLLRLIDEEYTRHPFYGSRKMVVHLGRCGHSVNRKWAQRLMRSLGLAGMAPGPNTSRAHPQHKVYPYLLRGVAISRPNQVWSTDITYIRLARGFAYLVAVIDWYSRRVLSWRISNSMETVFCVDCLEEALRIHGKPEVFNTDQGSQFTSEAFTSVLKREGVIISMDGRGRALDNIFVERLWRSVKHEDVYLKGYSAMGELLIGLTQYFTFYNGERPHQALKNLTPDVVYQRAQGGGAMIVDKYGAAQSLPMALRSTGTAFDEVRLALLCHVTHADAGLSWRCSEGTERKSRDEAWREGHHHHHH has a documented soluble on expression in E. coli of not soluble

Noted for GLESFSLTSHEKKFGVNIEFSDVNFSYPKQTNHRTLKSINFFIPSGTTCALVGHTGSGKSTIAKLLYRFYDAEGDIKIGGKNVNKYNRNSIRSIIGIVPQDTILFNETIKYNILYGKLDATDEEVIKATKSAQLYDFIEALPKKWDTIVGNKGMKLSGGERQRIAIARCLLKDPKIVIFDEATSSLDSKTEYLFQKAVEDLRKNRTLIIIAHRLSTISSAESIILLNKGKIVEKGTHKDLLKLNGEYAEMWNMQSGGNDI : its soluble on expression in E. coli reads soluble

====

method-notes: soluble on expression in E. coli; label from the status in PepcDB or PDB records
observable: soluble on expression in E. coli

Completed entries (count: 8):
NKVNDESVEYFGQRNEFRQASDFMEERISGMTNISIAIKTNESQGIAAPDFLNTIGEFSSWLRDQPETDHVATLADVYKRLNKNMHGDDEAYYLLPQERELAAQYLLLYEMSLPYGLDLNNQINVDKSSIKMVLTVANLGSVELVDLENRIYQWFAEHAPQYQVVASSPSLMFAHIGETN not soluble
MGSDKIHHHHHHMVGMLERTIAGLQRNNMAGYFVHNRQELMALLSGLMEKGQTVGCGDSVTLEELGVFDFLRKGDYIFYDKYVPGLTSEDKRRLYIQNFAADTFITGTNAVTTDGKLFNIDGNGSRVAPMIYGPRQVIVVVGTNKITEDVESAIQRVRQIAAPMDAKRLKKETPCTKLNRCVDCRHPQRICNDFVLITGQFVKDRIKVIIIDMEIGY not soluble
MIYSFRNSGFRDPETGVYNQTYFMEVFNREWHRHIREQQSLALLYLCPHIHETVKQPHLLEFFTKQVQEALLRATDLIARLDHNHFALGLFNIDEEGTEVVLKRIGQHIQDFNQEFGKNHKLKIDYKLAACLCLPTQEQKIESMFNNVSKLSQELERSPQQSQALIKLQ not soluble
MGSDKIHHHHHHMAKERVDVLLVEQGLFDTREKAKRAVMAGEILGDNEERLDKPGVKIDPSVKLHLKGKPMPYVSRGGLKLEKALKVFGLDVKGLTVLDIGSSTGGFTDVMLQNGAKLSYALDVGTNQLVWKLREDPRVVVMENTNFRYSKLEDFTEGQPEFASIDVSFISLKLILPALKNIIKTHGSVVSLIKPQFEAGRENVGKHGIVRDRKVHEEVLKNVLAMANAEGFNVKGLDFSPIKGGEGNIEFLAWLERSDTDQGVIEENVDTQKVIDSAYSNLNS not soluble
MAHHHHHHMRGCLHFTRVARHKRHDKGGNAHNFAFDTLTKVYRDAVYLPQEKYRRGLMHPERSPGAPPSQAALVAPSSSSDVTNHVGNIGVMSSVATKLSDWMEQQPHHQTKHHTNGGGGTGHASATASCATPIARRSVASSSPSPAPSAAAATTDESHVDDEAIRRRLRAHLFSDKIQPGQPRTPPSTPVATASASPRRSGVQAEILSVYRSMLREVSRMQDADTRRSLSAYIRQEYDKQCDIPRKNIMKIEWRLNYGKRKLEELQAMSKHTKFTMMR not soluble
SLSDPIIDMHLHASAADEQGPPPLAMCAPINPMPTWDQRQPWTTGLIAMFKAPKCADPIWSPTTDDEIRDKTLAIMAKRNIIGVVSGPYKRVMAWRALAPDRVLPGLMPTMSDLSKPKVLLDDFGKAKAAGQLAVIGELGFQYEGIAPNDPRLENLWAAAEAADVPVAIHIGPGPPGVAYLPGGGYRARMSSPLLLEDVLVKHPKLRINVMHAGYPMLDDTLALLYAHPQVYVDTGVIVYSQPRPAFYRYLQTLVDAGFGERVMFGSDQMVWPETIERSIAVIDEAPFLSAQQKRDILYNNAARFLRLDEATQAKHRAM soluble
MGSDKIHHHHHHMFVRVDISSLPLGKRMAQDIYDFDGHLLISKGIVVQESHLQQLRQRGYEYVYIQEEDEVNENSLNQGIAYLTDKQLPKAFSASVEGMRQMMDKVSSRHMIKLGEVEECIDLVYDHVLQTYNVLKHLQDLRNKDEYTLQHSVSVGILSIKIGQSLGLDADKLKNLGIAGLLHDIGKSMISLDIINKPGPLDDKEFKEIKKHPVYGYQIVNEIKLEDQDIPQAVLQHHEHQDGNGYPLGIRGDRINSFARIIAVADVFDALTSDRAYRPRMSLLQAVDIIIKSSCGQLDPLASRRLLSYVLDITTGEKVILSTGEEATVILKNEVDPARPLVRIGDNFLDLKTNRDVFIKDFAR not soluble
MKILLFICGEGLGHTGRCLALGKEFLAAGHEVNFGAYGYSKGLVQKTGYSAYEIPSEIKLAGEAGTFDIRKSIKETLNNLSPSGFRKILRLIEKLDPDVVLSDGYYTGILAAQKRKVPVYFIGHQFNMEEFFWKKGLFAGIAGIFVKRFYNYVFSSVDGIIVPDYPLPYSVNRKNFTISRAVNDNIFFSGPLIRCRYQEAGEKAFKRPNVLSTIGAFGYRAAVFRNVLEAAKLDPSIYYTFISGPEIDPEQFSKVPENVEFTGFTENPFPYYKGSDLVITAGGHGTIMESLAFGLPILSFPDEKHAEQENNASVLEEAGYGKRMSYLTPPEVILACIREIFEDENYSKKTRRLMELAEVLDGPAAVRKFLEEKHRGLEHHHHHH not soluble

Lab note: measured soluble on expression in E. coli of MVTPFPEVSEWLCIGQIVGAHGLRGEVKVKPFSDFPERFTVPGCRWLRSPRQPQPYAVTLLRGRFLPRAEQFVVTFAEISDRTAAEALKGAEILVPASDRPPLAANEYHLMDLIGLAVYHQGERVGEVVGLVNAGNDLLEVQLLDPAPKAPQSVYIPFVPAIVPVVDLAARRIEIDPPLGLLPLEHHHHHH was not soluble

Summary for this sequence, MMINTQEDKLVSAHDAEEFHRFFVGHDSDLQQEVTTLLTREAHLLDIQAYKAWLEHFVAPEIKYQVISRELRSTSERRYQLNDAVNLYNENYQQLKVRVEHQMDPQNWANNPKIRFTRFVTNVTAAKDKSAPEILHVRSNLILHRARRENQVDVFYATREDKWKRIEGGGIKLVERFVDYPERIPQTHNLLVFL : soluble on expression in E. coli is soluble

MSLSQHIRKLDSDVSERLKSQACTVSLASAVREIVQNSVDAHATTIDVMIDLPNLSFAVYDDGIGLTRSDLNILATQNYTSKIRKMNDLVTMKTYGYRGDALYSISNVSNLFVCSKKKDYNSAWMRKFPSKSVMLSENTILPIDPFWKICPWSRTKSGTVVIVEDMLYNLPVRRRILKEEPPFKTFNTIKADMLQILVMHPMISLNVQYTDKLRINTEVLFRSKNITEGLTKHQQMSQVLRNVFGAEGHHHHHH yielded soluble on expression in E. coli of soluble
